- assay.system: Tyrosine-protein phosphatase non-receptor type 1 (Homo sapiens, UniProt P18031)
- protocol.summary: Allosteric inhibition of PTP1B
pIC50: −log10 of the molar value.
property.name: pIC50

| smiles.text | assay.system | property.name | test.value |
| --- | --- | --- | --- |
| CCc1oc2cc(S(=O)(=O)Nc3nccs3)ccc2c1C(=O)c1cc(Br)c(O)c(Br)c1 | Tyrosine-protein phosphatase non-receptor type 1 (Homo sapiens, UniProt P18031) | pIC50 | 5.10 |

---

- assay.system: UniProt:P18031
- protocol.summary: Inhibition of PTP1B expressed in Escherichia coli BL21 (DE3) after 10 mins by spectrophotometry

| compound | endpoint.unit | IC50 |
| --- | --- | --- |
| CCc1oc2cc(S(=O)(=O)Nc3nccs3)ccc2c1C(=O)c1cc(Br)c(O)c(Br)c1 | µM | 3 |
| CC(C)OC(=O)c1c(-c2ccc(-c3ccc(Cl)cc3)cc2)csc1NC(=O)C1C2C=CC(C2)C1C(=O)O (stereo unspecified) | µM | 6.8 |
| CCOC(=O)c1c(-c2ccc(-c3ccc(F)cc3)cc2)csc1NC(=O)c1ccccc1C(=O)O | µM | 5 |
| CCOC(=O)c1c(-c2ccc(-c3ccc(F)c(Cl)c3)cc2)csc1NC(=O)c1ccccc1C(=O)O | µM | 2.1 |
| CC(C)OC(=O)c1c(-c2ccc3ccccc3c2)csc1NC(=O)C1C2CCC(C2)C1C(=O)O (stereo unspecified) | µM | 30 |
| CC(C)OC(=O)c1c(-c2ccc(-c3ccccc3)cc2)csc1NC(=O)C1C2C=CC(C2)C1C(=O)O (stereo unspecified) | µM | 6.7 |
| CCOC(=O)c1c(-c2ccc(-c3ccc(OC)cc3)cc2)csc1NC(=O)c1ccccc1C(=O)O | µM | 4.6 |
| CCOC(=O)c1c(-c2ccc(-c3ccccc3OC)cc2)csc1NC(=O)c1ccccc1C(=O)O | µM | 8.5 |
| CC(C)OC(=O)c1c(-c2ccc(-c3ccccc3)cc2)csc1NC(=O)c1ccccc1C(=O)O | µM | 5.4 |
| CC(C)OC(=O)c1c(-c2cccc(-c3ccccc3)c2)csc1NC(=O)c1ccccc1C(=O)O | µM | 8.7 |
| CCOC(=O)c1c(-c2ccc(-c3cccc(OC)c3)cc2)csc1NC(=O)c1ccccc1C(=O)O | µM | 4.8 |

---

In this section, each of the compounds is paired with its reported IC50.
- assay.system: Receptor-type tyrosine-protein phosphatase C (Homo sapiens, UniProt P08575)
- Sequence (P08575 whole entry): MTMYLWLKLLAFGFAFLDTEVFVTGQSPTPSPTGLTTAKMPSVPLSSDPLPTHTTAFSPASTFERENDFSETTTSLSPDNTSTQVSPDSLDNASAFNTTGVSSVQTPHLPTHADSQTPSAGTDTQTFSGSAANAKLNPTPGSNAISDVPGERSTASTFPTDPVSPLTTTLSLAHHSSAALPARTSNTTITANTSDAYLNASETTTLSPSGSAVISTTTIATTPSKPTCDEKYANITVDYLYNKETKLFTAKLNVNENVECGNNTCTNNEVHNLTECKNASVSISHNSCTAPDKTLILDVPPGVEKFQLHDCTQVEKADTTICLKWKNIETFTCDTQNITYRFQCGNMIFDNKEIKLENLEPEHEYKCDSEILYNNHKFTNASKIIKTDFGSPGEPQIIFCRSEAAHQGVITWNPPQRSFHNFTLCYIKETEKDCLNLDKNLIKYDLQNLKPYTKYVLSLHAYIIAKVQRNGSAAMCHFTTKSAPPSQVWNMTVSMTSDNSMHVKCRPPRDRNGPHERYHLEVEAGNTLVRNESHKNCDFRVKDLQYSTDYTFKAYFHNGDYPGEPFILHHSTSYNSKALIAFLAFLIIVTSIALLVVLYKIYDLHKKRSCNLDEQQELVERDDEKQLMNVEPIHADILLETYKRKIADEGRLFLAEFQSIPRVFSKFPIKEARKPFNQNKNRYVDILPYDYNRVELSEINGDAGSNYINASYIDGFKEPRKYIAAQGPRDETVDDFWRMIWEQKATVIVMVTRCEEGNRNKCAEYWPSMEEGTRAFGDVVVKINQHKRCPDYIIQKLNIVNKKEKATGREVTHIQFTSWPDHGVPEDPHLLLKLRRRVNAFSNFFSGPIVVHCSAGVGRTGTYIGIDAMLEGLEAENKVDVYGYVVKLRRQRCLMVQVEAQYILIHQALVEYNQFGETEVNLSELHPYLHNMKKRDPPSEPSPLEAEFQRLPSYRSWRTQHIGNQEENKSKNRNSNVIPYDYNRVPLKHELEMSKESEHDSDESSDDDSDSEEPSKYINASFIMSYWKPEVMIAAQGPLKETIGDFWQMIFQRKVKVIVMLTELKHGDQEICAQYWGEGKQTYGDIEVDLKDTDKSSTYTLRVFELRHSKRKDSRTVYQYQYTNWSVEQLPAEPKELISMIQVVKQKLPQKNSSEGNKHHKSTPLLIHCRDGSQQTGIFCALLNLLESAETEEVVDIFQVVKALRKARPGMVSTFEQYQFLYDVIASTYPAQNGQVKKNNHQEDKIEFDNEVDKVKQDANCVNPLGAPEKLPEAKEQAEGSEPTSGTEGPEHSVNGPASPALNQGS
property.name: IC50

| compound | test.value |
| --- | --- |
| CC(C)OC(=O)c1c(-c2ccc(-c3ccccc3)cc2)csc1NC(=O)C1C2C=CC(C2)C1C(=O)O (configuration not stated) | 33 µM |
| CC(C)OC(=O)c1c(-c2ccc(-c3ccc(Cl)cc3)cc2)csc1NC(=O)C1C2C=CC(C2)C1C(=O)O (configuration not stated) | 32.6 µM |

---

- assay.system: Tyrosine-protein phosphatase non-receptor type 1 (Homo sapiens)
- Sequence (whole entry): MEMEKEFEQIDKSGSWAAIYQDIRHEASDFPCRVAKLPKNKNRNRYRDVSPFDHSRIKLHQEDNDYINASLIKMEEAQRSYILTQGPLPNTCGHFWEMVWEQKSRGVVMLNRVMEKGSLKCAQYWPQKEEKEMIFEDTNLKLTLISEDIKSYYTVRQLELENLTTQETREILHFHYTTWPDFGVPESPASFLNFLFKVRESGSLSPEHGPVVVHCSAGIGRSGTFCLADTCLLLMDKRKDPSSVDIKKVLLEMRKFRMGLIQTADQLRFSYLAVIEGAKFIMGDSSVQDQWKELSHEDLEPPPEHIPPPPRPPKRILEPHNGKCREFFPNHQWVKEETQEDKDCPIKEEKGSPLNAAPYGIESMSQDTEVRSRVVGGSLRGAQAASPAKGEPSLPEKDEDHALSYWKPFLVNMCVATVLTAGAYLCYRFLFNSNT
- protocol.summary: Inhibition of PTP1B expressed in Escherichia coli BL21 (DE3) at 100 uM after 10 mins by spectrophotometry
In this section we review reported inhibition values for a set of molecules.

| molecule | assay.system | inhibition |
| --- | --- | --- |
| CC(C)OC(=O)c1c(-c2ccc3ccccc3c2)csc1NC(=O)C1CCCCC1C(=O)O (stereo not given) | Tyrosine-protein phosphatase non-receptor type 1 (Homo sapiens) | 100% |
| CCOC(=O)c1c(-c2ccc(Br)cc2)csc1NC(=O)c1ccccc1C(=O)O | Tyrosine-protein phosphatase non-receptor type 1 (Homo sapiens) | 97.3% |
| CCOC(=O)c1c(-c2ccc(F)cc2)csc1NC(=O)C1C2C=CC(C2)C1C(=O)O (stereo not given) | Tyrosine-protein phosphatase non-receptor type 1 (Homo sapiens) | 30% |
| CCOC(=O)c1c(-c2ccc(-c3cccc(OC)c3)cc2)csc1NC(=O)c1ccccc1C(=O)O | Tyrosine-protein phosphatase non-receptor type 1 (Homo sapiens) | 99.4% |
| COC(=O)c1c(-c2ccc3ccccc3c2)csc1NC(=O)C1CCCCC1C(=O)O (stereo not given) | Tyrosine-protein phosphatase non-receptor type 1 (Homo sapiens) | 92.6% |
